Biological target: T1, Extracellular domain (ECD) of the canine IL-4 receptor alpha-V5 epitope-AviTag-His Tag (canine)
T1 construct: monomeric form isolated by size exclusion; also called canine IL-4RA-V5-Avi-His; canine IL-4RA
T1 chain: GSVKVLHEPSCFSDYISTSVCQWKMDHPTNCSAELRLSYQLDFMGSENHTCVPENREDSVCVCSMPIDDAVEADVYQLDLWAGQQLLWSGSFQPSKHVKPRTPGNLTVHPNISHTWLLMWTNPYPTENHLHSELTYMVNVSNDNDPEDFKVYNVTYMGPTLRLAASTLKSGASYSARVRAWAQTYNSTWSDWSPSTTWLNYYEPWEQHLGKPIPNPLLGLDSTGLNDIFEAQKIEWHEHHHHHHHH
Assay: SPR, Fab-SASA captured on BSA;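 also: biacore T200 SPR, Fab-SASA variants from E. coli conditioned medium captured on BSA-coated CM5 chip, canine IL-4RA injected 120 s then 420 s dissociation, 1:1 model fit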
measured endpoint: koff (s⁻¹)
Write the number in s⁻¹ without appending the unit.

# annotated cases, reported koff shown
>  <binder>
TB640_005 Fab-SASA VL-T102G (Fab, V domains shown, not shown: SASA tag then His-tag) VH: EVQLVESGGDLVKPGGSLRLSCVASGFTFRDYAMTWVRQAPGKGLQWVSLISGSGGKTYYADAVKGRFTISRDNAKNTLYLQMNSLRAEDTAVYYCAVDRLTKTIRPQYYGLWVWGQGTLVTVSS VL: DIVMTQTPLSLSVSPGETASISCRSSQSLLYSIGYNYLDWYLQKPGQSPQGLIYLGSKRASGVPDRFSGSGSGTDFTLRISRVEANDTGVYYCMQGLQSPLGFGQGTKLEIKR

>  <koff, s⁻¹>
0.000451

$$$$
>  <binder>
TB640_005 Fab-SASA VL-S57H (Fab, V domains shown, not shown: SASA tag then His-tag) VH: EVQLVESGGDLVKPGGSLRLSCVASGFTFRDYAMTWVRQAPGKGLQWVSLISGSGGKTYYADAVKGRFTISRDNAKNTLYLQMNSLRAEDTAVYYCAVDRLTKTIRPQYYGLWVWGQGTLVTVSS VL: DIVMTQTPLSLSVSPGETASISCRSSQSLLYSIGYNYLDWYLQKPGQSPQGLIYLGHKRASGVPDRFSGSGSGTDFTLRISRVEANDTGVYYCMQGLQSPLTFGQGTKLEIKR

>  <koff, s⁻¹>
0.000677

$$$$

Now for the binder whose koff we want.
# koff of TB640_005 Fab-SASA VH-Y110L (Fab, V domains shown, not shown: SASA tag then His-tag) VH: EVQLVESGGDLVKPGGSLRLSCVASGFTFRDYAMTWVRQAPGKGLQWVSLISGSGGKTYYADAVKGRFTISRDNAKNTLYLQMNSLRAEDTAVYYCAVDRLTKTIRPQYLGLWVWGQGTLVTVSS VL: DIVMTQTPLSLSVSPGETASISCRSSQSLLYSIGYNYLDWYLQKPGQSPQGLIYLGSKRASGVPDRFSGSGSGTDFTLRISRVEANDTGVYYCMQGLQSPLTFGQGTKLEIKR = 0.00135
